Test: Cell viability / cytotoxicity, MTS assay
Type: cell-based
Settings: human; Ava5 cells, MTS assay; read-out: Cyto-Toxicity (CC50)
We label by threshold. Values of CC50 at 3 days strictly beneath 70 µM are YES. Values of 70 µM and up are NO.

* C=CCN=C=S [Allyl isothiocyanate, allyl isothiocyanate] | YES
* S=C=NCCc1ccccc1 [Phenethyl isothiocyanate, phenethyl isothiocyanate] | YES
* S=C=NCc1ccccc1 [Benzyl isothiocyanate, benzyl isothiocyanate] | YES
* C[S+]([O-])CCCCN=C=S (centres unmarked) | YES
* CCCCN=C=S [Butyl isothiocyanate, butyl isothiocyanate] | NO
